Quick reference for kon among some binders
TESTED ON: T1, recombinant human ASM protein (human, UniProt P17405 47-630)
T1 construct: Recombinant human ASM in solution; also called acid sphingomyelinase (ASM) protein
T1 sequence: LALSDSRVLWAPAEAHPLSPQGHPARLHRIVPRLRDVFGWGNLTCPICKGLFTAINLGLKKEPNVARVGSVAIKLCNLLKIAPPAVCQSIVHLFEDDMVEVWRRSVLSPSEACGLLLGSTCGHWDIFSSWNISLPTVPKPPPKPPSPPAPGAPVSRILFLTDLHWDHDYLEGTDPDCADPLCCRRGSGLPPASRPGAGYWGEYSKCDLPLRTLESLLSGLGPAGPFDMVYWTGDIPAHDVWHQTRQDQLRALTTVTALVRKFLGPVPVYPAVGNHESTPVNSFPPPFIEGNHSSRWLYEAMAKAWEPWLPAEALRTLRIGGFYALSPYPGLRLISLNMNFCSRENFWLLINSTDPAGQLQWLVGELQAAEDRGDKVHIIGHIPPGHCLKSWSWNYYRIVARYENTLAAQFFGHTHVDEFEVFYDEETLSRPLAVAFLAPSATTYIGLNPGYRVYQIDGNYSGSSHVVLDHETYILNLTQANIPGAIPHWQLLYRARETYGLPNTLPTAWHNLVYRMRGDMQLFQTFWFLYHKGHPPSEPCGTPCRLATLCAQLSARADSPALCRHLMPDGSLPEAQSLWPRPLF
METHOD DESCRIPTION: BLI (Octet), antibody on AHC sensor
Your answer should be a plain number; it is taken to be in M⁻¹ s⁻¹.

BINDER: #9104 (antibody, V domains shown, Parental antibody; also called antibody #9104) VH: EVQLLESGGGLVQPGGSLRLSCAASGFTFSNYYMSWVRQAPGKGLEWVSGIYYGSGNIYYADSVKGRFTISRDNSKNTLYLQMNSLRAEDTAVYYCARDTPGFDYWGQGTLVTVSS VL: QSVLTQPPSASGTPGQRVTISCTGSSSNIGNNAVNWYQQLPGTAPKLLIYYDSHRPSGVPDRFSGSKSGTSASLAISGLRSEDEADYYCGAWDYSLSAYVFGGGTKLTVLG
EXPERIMENTAL ENDPOINT: kon
SCALE UNIT: M⁻¹ s⁻¹
RESULT: 389000
//
BINDER: #9104v-H10 (antibody, human IgG4 S228P, lambda, V domains shown, Full-length IgG, lambda) VH: EVQLLESGGGLVQPGGSLRLSCAASGFTFSNYYMSWVRQAPGKGLEWVSGIYYGNGIPYYADSVKDRFTISRDNSKNTLYLQMNSLRAEDTAVYYCARDTPGFDYWGQGTLVTVSS VL: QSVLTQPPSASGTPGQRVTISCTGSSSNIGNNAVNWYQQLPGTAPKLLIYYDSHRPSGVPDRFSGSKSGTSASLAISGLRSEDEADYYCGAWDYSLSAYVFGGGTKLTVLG
EXPERIMENTAL ENDPOINT: kon
SCALE UNIT: M⁻¹ s⁻¹
RESULT: 237000

Now let's try a different one.
Query string: GET /values?readout=kon&item= #9104v-H13 (antibody, human IgG4 S228P, lambda, V domains shown, Full-length IgG, lambda) VH: EVQLLESGGGLVQPGGSLRLSCAASGFTFSNYYMSWVRQAPGKGLEWVSGIYYGSGIPYYANSVKGRFTISRDNSKNTLYLQMNSLRAEDTAVYYCARDTPGFDYWGQGTLVTVSS VL: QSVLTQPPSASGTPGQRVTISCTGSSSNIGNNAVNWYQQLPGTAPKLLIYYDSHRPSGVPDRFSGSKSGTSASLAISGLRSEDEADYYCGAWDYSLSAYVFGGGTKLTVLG
Result string: 231000

meta.source: patent US20260201064A1
